Every entry's value here was drawn from patent US20240116985A1.

pIC50: recorded values
Target: full-length beta-Catenin (Uniprot ID P35222) (Homo sapiens (Human)) (UniProt P35222)
Sequence (P35222 2-781 limits assumed): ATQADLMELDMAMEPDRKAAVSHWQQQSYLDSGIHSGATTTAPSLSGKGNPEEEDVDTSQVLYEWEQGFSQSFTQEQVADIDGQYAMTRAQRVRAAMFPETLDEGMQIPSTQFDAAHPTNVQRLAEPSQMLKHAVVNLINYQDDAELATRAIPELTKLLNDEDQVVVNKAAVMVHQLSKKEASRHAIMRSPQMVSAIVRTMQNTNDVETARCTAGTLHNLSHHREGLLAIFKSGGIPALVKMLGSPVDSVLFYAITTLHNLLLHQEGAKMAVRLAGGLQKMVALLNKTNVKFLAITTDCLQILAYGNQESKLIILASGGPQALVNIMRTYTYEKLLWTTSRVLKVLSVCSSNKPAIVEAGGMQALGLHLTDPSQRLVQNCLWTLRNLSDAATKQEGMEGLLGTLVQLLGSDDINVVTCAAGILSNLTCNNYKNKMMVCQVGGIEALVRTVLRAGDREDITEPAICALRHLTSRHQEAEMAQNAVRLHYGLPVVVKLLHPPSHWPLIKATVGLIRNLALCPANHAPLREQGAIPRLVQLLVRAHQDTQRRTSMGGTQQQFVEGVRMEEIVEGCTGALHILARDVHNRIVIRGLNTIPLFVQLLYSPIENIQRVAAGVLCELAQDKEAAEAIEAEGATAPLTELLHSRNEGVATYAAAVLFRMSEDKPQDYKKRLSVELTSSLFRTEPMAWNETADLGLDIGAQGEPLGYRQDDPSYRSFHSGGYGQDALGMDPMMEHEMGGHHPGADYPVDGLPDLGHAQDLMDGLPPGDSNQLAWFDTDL
Test: fluorescence polarization competition; 10 nM full-length beta-catenin + 10 nM 5FAM-TCF4(10-53) as competitor probe; peptide titrated
pIC50: −log10 of the molar value. Starred links: 1 amine or outer side, 2 acyl side, 3 side chain; linkers in the order of their positions; H or OH if unused. Positions of bridges follow the written chain, without caps; N, C: chain ends. Non-standard residues stand in square brackets, D forms with d. Primed or numbered codes have the meaning given here. PyrS2″ = (S)-3-amino-1-((pent-4-en-1-yloxy)carbonyl)pyrrolidine-3-carboxylic acid (stapling residue), C=CCCCOC(=O)N1CC[C@@](N[*:1])(C(=O)[*:2])C1; B5(4) = 2,2-bis(4-pentenyl)glycine = 2-amino-2-(pent-4-en-1-yl)hept-6-enoic acid (stitching residue), C=CCCCC(CCCC=C)(N[*:1])C(=O)[*:2]; Bta = N[C@@H](Cc1csc2ccccc12)C(=O)O; αAllylPro = C=CC[C@@]1(C(=O)O)CCCN1; tBuAla = CC(C)(C)C[C@H](N)C(=O)O; 3Thi = N[C@@H](Cc1ccsc1)C(=O)O
property_name: pIC50

[[record]]
binder = "Ac-[αAllylPro]D[tBuAla][B5(4)]NTAAFN[PyrS2″][3Thi][Bta]N-NH2 (staple 1-4, 4-11) [I-1746]"
observed = 6.63

[[record]]
binder = "Ac-[αAllylPro]D[tBuAla][B5(4)]NTAAFW[PyrS2″][3Thi][Bta]Q-NH2 (staple 1-4, 4-11) [I-1741]"
observed = 5.36

[[record]]
binder = "Ac-[αAllylPro]D[tBuAla][B5(4)]NTAAFN[PyrS2″][3Thi][Bta]F-NH2 (staple 1-4, 4-11) [I-1744]"
observed = 6.44

